The reported measurements were obtained from the supplement of paper PMC12645437.

- target.under.test: T1, CRBN, Q96SW2;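 note: pooled lentiviral library of zinc finger degron-EGFP fusions in mCherry-positive Jurkat cells, FACS-sorted after compound exposure, with degron abundance counted by next-generation sequencing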
- T1 chain: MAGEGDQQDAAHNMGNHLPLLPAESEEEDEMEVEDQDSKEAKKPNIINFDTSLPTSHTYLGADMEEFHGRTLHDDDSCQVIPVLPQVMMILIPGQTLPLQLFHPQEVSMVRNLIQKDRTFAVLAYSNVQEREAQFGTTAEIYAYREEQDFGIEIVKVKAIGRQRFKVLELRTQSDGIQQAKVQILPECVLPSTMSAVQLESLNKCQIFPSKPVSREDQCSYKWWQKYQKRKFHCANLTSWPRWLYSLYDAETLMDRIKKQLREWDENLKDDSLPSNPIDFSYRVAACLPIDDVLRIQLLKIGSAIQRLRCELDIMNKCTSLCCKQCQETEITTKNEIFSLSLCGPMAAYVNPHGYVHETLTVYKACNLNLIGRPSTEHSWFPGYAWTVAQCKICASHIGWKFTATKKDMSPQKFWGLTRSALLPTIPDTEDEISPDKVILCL
- protocol.notes: log2 fold change of degron read counts, EGFP-low vs EGFP+ sorted cells (limma voom), compound-induced degradation; higher = more compound-induced degradation of the degron-EGFP fusion; degrons are variants of IKZF1/3 zinc finger 2; compound dose not given here
- conditions: Jurkat; 18 h; compound: thalidomide
Whole data set: some 8,300 sequences, median “log2 fold change of degron read counts, EGFP-low vs EGFP+ sorted cells (limma voom), compound-induced degradation” near -1.1, cut for the highest 2% near 3.2. The list comes from a sample in which the highest values are over-represented; it also holds close analogues and randomly drawn sequences.
Response key: yes (1) means log2 fold change of degron read counts >= 0.3; no (0) means log2 fold change of degron read counts < 0.3.

[[record]]
residue_sequence = "FACPICGAAFTQKGNLLRHIKL [46F_47A_49P_50I_52G_53A_54A_55F_67L_, Q9UKT9]"
cat = "yes (1)"

[[record]]
residue_sequence = "FLCEVCGATFTQKGNLLRHIKL [46F_47L_49E_50V_52G_53A_54T_55F_67L_, Q9UKT9]"
cat = "yes (1)"

[[record]]
residue_sequence = "FLCPICGAAFTQKGNLLRHIKL [46F_47L_49P_50I_52G_53A_54A_55F_67L_, Q9UKT9]"
cat = "yes (1)"

[[record]]
residue_sequence = "FWCPICGRRFTQKGNLLRHIKL [46F_47W_49P_50I_52G_53R_54R_55F_67L_, Q9UKT9]"
cat = "no (0)"

[[record]]
residue_sequence = "FNCEVCGAQFTQKGNLLRHIKL [46F_47N_49E_50V_52G_53A_54Q_55F_67L_, Q9UKT9]"
cat = "yes (1)"

[[record]]
residue_sequence = "FTCPICGATFTQKGNLLRHIKL [46F_47T_49P_50I_52G_53A_54T_55F_67L_, Q9UKT9]"
cat = "yes (1)"

[[record]]
residue_sequence = "LQCNQCGFHCTQKGNLLRHIKL [46L_47Q_49N_50Q_52G_53F_54H_55C_67L_, Q9UKT9]"
cat = "no (0)"

[[record]]
residue_sequence = "FLCDICGATFTQKGNLLRHIKL [46F_47L_49D_50I_52G_53A_54T_55F_67L_, Q9UKT9]"
cat = "no (0)"

[[record]]
residue_sequence = "FDCPICGAAFTQKGNLLRHIKL [46F_47D_49P_50I_52G_53A_54A_55F_67L_, Q9UKT9]"
cat = "yes (1)"

[[record]]
residue_sequence = "FLCPICGASFTQKGNLLRHIKL [46F_47L_49P_50I_52G_53A_54S_55F_67L_, Q9UKT9]"
cat = "yes (1)"

